B1: Chromodomain-helicase-DNA-binding protein 3, residues 374 to 426; numbered along this chain, Q12873 (parent)
chain: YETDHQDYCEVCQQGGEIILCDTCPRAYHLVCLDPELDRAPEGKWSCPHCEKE

- Variants of: B1
- assay.details: abundance fitness (aPCA) (normalised: wild type 0, dead -1); higher = more abundant; growth selection in yeast, the domain comes from the species named
- test.parameters: Homo sapiens
Please map values of abundance fitness to classes as shown: low = under -0.4, moderate = from -0.4 up to 0.04, high = 0.04 and over

INSERT INTO measurements (mutation_id, discrete_label) VALUES
  ('I18T', 'high'),
  ('Q13D', 'moderate'),
  ('G15Q', 'low'),
  ('T23V', 'moderate'),
  ('D38H', 'high'),
  ('R26S', 'high'),
  ('T23P', 'low'),
  ('H29T', 'low'),
  ('C21D', 'low'),
  ('Q13V', 'moderate');
